test: Cytotoxicity against human HeLa cells after 72 hrs by MTT assay
Assay Metric: IC50 (µM)
Numbers only, in µM.

>>> observed_measurement("C=C(C)[C@H](CC=C(C)C)C[C@@]12C[C@@H](CC(O)C(C)(C)O)C(C)(C)[C@@](CC=C(C)C)(C(=O)C(C(=O)c3ccc(O)c(O)c3)=C1O)C2=O (some centres undefined)")
14.9
>>> observed_measurement("C=C(C)[C@H](CC=C(C)C)C[C@@]12C[C@@H](CC=C(C)C)C(C)(C)[C@@](CC(O)C(C)(C)O)(C(=O)C(C(=O)c3ccc(O)c(O)c3)=C1O)C2=O (some centres undefined)")
23
>>> observed_measurement("C=C(C)[C@H](CC=C(C)C)C[C@@]12C[C@@H](CC=C(C)C)C(C)(C)[C@@](CCC(C)(C)O)(C(=O)C(C(=O)c3ccc(O)c(O)c3)=C1O)C2=O")
17.5

Let us move to another entry and its IC50.
Documented IC50 of C=C(C)C(O)C[C@H](C[C@@]12C[C@@H](CC=C(C)C)C(C)(C)[C@@](CC=C(C)C)(C(=O)C(C(=O)c3ccc(O)c(O)c3)=C1O)C2=O)C(=C)C (some centres undefined) : 14.3
